Sourced from patent US20100003191A1

Measured Biodistribution of radioactivity, Brain, listed per entry.
Assay: In vivo radioactivity biodistribution experiment in normal mice (Example 1, Table 13)
Parameters: species or system ddY mice
Settings: brain, 10 min after injection

These solved cases illustrate the format of a correct answer.
> print(dat)
                                   compound                        value.observed
1  O=C1/C(=C/c2ccc(O)cc2)Oc2ccc([125I])cc21 [[^125I]20]  1.48 (0.19) % injected dose per gram
2  CNc1ccc(/C=C2\Oc3ccc([125I])cc3C2=O)cc1 [[^125I]12]  1.22 (0.09) % injected dose per gram
3  CN(C)c1ccc(/C=C2\Oc3ccc([125I])cc3C2=O)cc1 [[^125I]7]  0.69 (0.21) % injected dose per gram

Request: Quick one: give measured Biodistribution of radioactivity, Brain for Nc1ccc(/C=C2\Oc3ccc([125I])cc3C2=O)cc1 [[^125I]14]
Response: 1.51 (0.17) % injected dose per gram

Request: Quick one: give measured Biodistribution of radioactivity, Brain for COc1ccc(/C=C2\Oc3ccc([125I])cc3C2=O)cc1 [[^125I]17]
Response: 0.54 (0.12) % injected dose per gram

====

Experiment: In vivo radioactivity biodistribution experiment in normal mice (Example 1, Table 13)
Parameters: species or system ddY mice
Details: pancreas, 10 min after injection
Method: ^125I-labeled compounds were diluted with 10% ethanol-containing physiological saline. […] After their blood was collected, organs were removed, and the weights and radioactivities thereof were measured. When any of the aurone derivatives was used, sufficient radioactivity to perform imaging of intracerebral amyloid migrated to the brain from the early stage of injection (1.7-4.6% ID/g). […]
endpoint-name: Biodistribution of radioactivity, Pancreas

> print(dat)
                                   molecule                        value.observed
1  COc1ccc(/C=C2\Oc3ccc([125I])cc3C2=O)cc1 [[^125I]17]  0.77 (0.17) % injected dose per gram
2  O=C1/C(=C/c2ccc(O)cc2)Oc2ccc([125I])cc21 [[^125I]20]  2.65 (0.64) % injected dose per gram
3  CNc1ccc(/C=C2\Oc3ccc([125I])cc3C2=O)cc1 [[^125I]12]  1.81 (0.15) % injected dose per gram

Request: Quick one: give measured Biodistribution of radioactivity, Pancreas for Nc1ccc(/C=C2\Oc3ccc([125I])cc3C2=O)cc1 [[^125I]14]
Response: 2.01 (0.49) % injected dose per gram

Request: Quick one: give measured Biodistribution of radioactivity, Pancreas for CN(C)c1ccc(/C=C2\Oc3ccc([125I])cc3C2=O)cc1 [[^125I]7]
Response: 1.04 (0.25) % injected dose per gram

====

Experiment: In vivo radioactivity biodistribution experiment in normal mice (Example 1, Table 13)
Parameters: species or system ddY mice
Conditions: stomach, 30 min after injection
Description: ^125I-labeled compounds were diluted with 10% ethanol-containing physiological saline. […] After their blood was collected, organs were removed, and the weights and radioactivities thereof were measured. When any of the aurone derivatives was used, sufficient radioactivity to perform imaging of intracerebral amyloid migrated to the brain from the early stage of injection (1.7-4.6% ID/g). […]
endpoint-name: Biodistribution of radioactivity, Stomach

> print(dat)
                                   compound                         value.observed
1  Nc1ccc(/C=C2\Oc3ccc([125I])cc3C2=O)cc1 [[^125I]14]  4.01 (2.29) % injected dose per organ

Request: Quick one: give measured Biodistribution of radioactivity, Stomach for CNc1ccc(/C=C2\Oc3ccc([125I])cc3C2=O)cc1 [[^125I]12]
Response: 2.82 (1.88) % injected dose per organ

====

Assay: In vivo radioactivity biodistribution experiment in normal mice (Example 1, Table 13)
Set-up: species or system ddY mice
Details: lung, 30 min after injection
endpoint-name: Biodistribution of radioactivity, Lung

These solved cases illustrate the format of a correct answer.
> print(dat)
                                   molecule                           endpoint.name                        value.observed
1  CN(C)c1ccc(/C=C2\Oc3ccc([125I])cc3C2=O)cc1 [[^125I]7]  Biodistribution of radioactivity, Lung  1.51 (0.41) % injected dose per gram
2  O=C1/C(=C/c2ccc(O)cc2)Oc2ccc([125I])cc21 [[^125I]20]  Biodistribution of radioactivity, Lung  1.62 (0.22) % injected dose per gram
3  CNc1ccc(/C=C2\Oc3ccc([125I])cc3C2=O)cc1 [[^125I]12]  Biodistribution of radioactivity, Lung  2.41 (0.66) % injected dose per gram

Request: Quick one: give measured Biodistribution of radioactivity, Lung for Nc1ccc(/C=C2\Oc3ccc([125I])cc3C2=O)cc1 [[^125I]14]
Response: 5.83 (0.55) % injected dose per gram

Request: Quick one: give measured Biodistribution of radioactivity, Lung for COc1ccc(/C=C2\Oc3ccc([125I])cc3C2=O)cc1 [[^125I]17]
Response: 0.97 (0.20) % injected dose per gram

====

Measured Ki, listed per entry.
Molecular target: Ab(1-42) aggregates (Homo sapiens)
Construct: Ab(1-42) was dissolved in 10 mM phosphate buffer containing 1 mM EDTA (pH 7.4)
Sequence (P05067 672-713 limits assumed): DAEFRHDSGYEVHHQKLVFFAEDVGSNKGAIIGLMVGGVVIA
Assay: Binding inhibition experiment using Ab(1-42) aggregates, inhibition constants (Ki), radioligand [125I](Z)-2-(4-aminobenzylidene)-5-iodobenzofuran-3(2H)-one (Table 14)
Settings: Aβ42 aggregates
Express the reported value numerically, then name its unit.

> print(dat)
                                   molecule  endpoint.name  value.observed
1  O=C1/C(=C/c2ccc(OCCO)cc2)Oc2ccc(I)cc21 [Compound 26]             Ki         1.05 nM
2  O=C1/C(=C/c2ccc(OCCOCCO)cc2)Oc2ccc(I)cc21 [Compound 27]             Ki         3.36 nM

Pending molecule:
Request: Quick one: give measured Ki for O=C1/C(=C/c2ccc(OCCOCCOCCO)cc2)Oc2ccc(I)cc21 [Compound 28]
Response: 2.56 nM

====

Assay: In vivo radioactivity biodistribution experiment in normal mice (Example 1, Table 13)
Set-up: species or system ddY mice
Details: stomach, 2 min after injection
Measured Biodistribution of radioactivity, Stomach, listed per entry.

> print(dat)
                                   compound                         value.observed
1  O=C1/C(=C/c2ccc(O)cc2)Oc2ccc([125I])cc21 [[^125I]20]  1.30 (0.43) % injected dose per organ

Request: Quick one: give measured Biodistribution of radioactivity, Stomach for CN(C)c1ccc(/C=C2\Oc3ccc([125I])cc3C2=O)cc1 [[^125I]7]
Response: 1.21 (0.29) % injected dose per organ

====

Measured Biodistribution of radioactivity, Intestine, listed per entry.
Assay: In vivo radioactivity biodistribution experiment in normal mice (Example 1, Table 13)
Set-up: species or system ddY mice
Details: intestine, 10 min after injection

These solved cases illustrate the format of a correct answer.
> print(dat)
                                   compound                        value.observed
1  COc1ccc(/C=C2\Oc3ccc([125I])cc3C2=O)cc1 [[^125I]17]  4.70 (1.46) % injected dose per gram
2  O=C1/C(=C/c2ccc(O)cc2)Oc2ccc([125I])cc21 [[^125I]20]  6.12 (0.83) % injected dose per gram
3  CNc1ccc(/C=C2\Oc3ccc([125I])cc3C2=O)cc1 [[^125I]12]  6.59 (3.43) % injected dose per gram

Request: Quick one: give measured Biodistribution of radioactivity, Intestine for Nc1ccc(/C=C2\Oc3ccc([125I])cc3C2=O)cc1 [[^125I]14]
Response: 5.06 (1.51) % injected dose per gram

Request: Quick one: give measured Biodistribution of radioactivity, Intestine for CN(C)c1ccc(/C=C2\Oc3ccc([125I])cc3C2=O)cc1 [[^125I]7]
Response: 5.37 (1.10) % injected dose per gram

====

Assay: In vivo radioactivity biodistribution experiment in normal mice (Example 1, Table 13)
Parameters: species or system ddY mice
Details: heart, 10 min after injection
Measured Biodistribution of radioactivity, Heart, listed per entry.

These solved cases illustrate the format of a correct answer.
> print(dat)
                                   molecule                            endpoint.name                        value.observed
1  Nc1ccc(/C=C2\Oc3ccc([125I])cc3C2=O)cc1 [[^125I]14]  Biodistribution of radioactivity, Heart  2.69 (0.45) % injected dose per gram
2  O=C1/C(=C/c2ccc(O)cc2)Oc2ccc([125I])cc21 [[^125I]20]  Biodistribution of radioactivity, Heart  2.57 (0.41) % injected dose per gram
3  CNc1ccc(/C=C2\Oc3ccc([125I])cc3C2=O)cc1 [[^125I]12]  Biodistribution of radioactivity, Heart  2.17 (0.34) % injected dose per gram

Request: Quick one: give measured Biodistribution of radioactivity, Heart for CN(C)c1ccc(/C=C2\Oc3ccc([125I])cc3C2=O)cc1 [[^125I]7]
Response: 1.36 (0.66) % injected dose per gram

Request: Quick one: give measured Biodistribution of radioactivity, Heart for COc1ccc(/C=C2\Oc3ccc([125I])cc3C2=O)cc1 [[^125I]17]
Response: 1.06 (0.10) % injected dose per gram
